# maps each entry to its TGI
Test system: SNB-78 CNS
Assay: NCI tumour cell line growth inhibition, 48 h
measurementName: TGI

INSERT INTO results (compound, result) VALUES
  ('C[C@H]1[C@H](C)CC[C@]2(C(=O)O)CCC3(COC(=O)/C=C/c4ccc(O)cc4)C(=CCC4[C@@]5(C)CC[C@H](O)C(C)(C)C5CC[C@]43C)[C@H]12 (some centres undefined)', '> 100 µM'),
  ('CCCCCC1CC(C(C)=O)CN1c1ccc(F)cc1 (centres undefined)', '> 100 µM'),
  ('CCC1=CCC(P(=O)(c2ccccc2)c2ccccc2)CC1C (centres undefined)', '> 100 µM'),
  ('NCCCC(N)(C(=O)O)C(F)F (centres undefined)', '> 5000 µM'),
  ('O=C(/C=C/c1ccc(O)c(O)c1)c1ccc(O)cc1O', '58.3 µM'),
  ('O=C(CC1(O)C(=O)Nc2c(Cl)cc(Cl)cc21)c1ccc([N+](=O)[O-])cc1 (centres undefined)', '> 78.9 µM'),
  ('C[N+]1(C)C/C(=C\C=C\c2ccccc2)C(=O)/C(=C/C=C/c2ccccc2)C1', '> 100 µM'),
  ('O=C(O)C1Cc2[nH]c3ccccc3c2C2CCCC12 (centres undefined)', '> 100 µM'),
  ('CSC(=NC(=O)c1ccccc1)SCCSC(=NC(=O)c1ccccc1)SC', '> 100 µM');

----------
Test system: LOX IMVI melanoma
Assay: NCI tumour cell line growth inhibition, 48 h
# maps each entry to its TGI
measurementName: TGI (µM)

INSERT INTO assay_data (compound, comparator, numericresult) VALUES
  ('CCOC(=O)CN1C(=O)c2c(NC(=O)C(=O)O)cccc2S1(=O)=O', '>', 100),
  ('CCCn1cc(/C=N\N=C2\C(=O)Nc3ccc(C)cc32)c2ccccc21', '=', 3.06),
  ('CC1OC(OC2C(O)C(OCCc3ccc(O)c(O)c3)OC(CO)C2OC(=O)/C=C/c2ccc(O)c(O)c2)C(O)C(O)C1O (stereo not given)', '=', 36),
  ('CCOC(=O)C(C(=O)OCC)S(C)(=O)=O', '>', 100),
  ('O=c1oc2ccc(I)cc2c(=O)n1-c1ccc(I)cc1F', '=', 4.66);

----------
Test system: A549 NSCLC
Assay: NCI tumour cell line growth inhibition, 48 h; in the data active = GI50 below about 0.43 µM; inactive = the rest
Outcome codes: active, inactive

INSERT INTO assay_data (compound, classname) VALUES
  ('O=C(O)CC(S)C(=O)O.[Li+].[Sb] (centres undefined)', 'inactive'),
  ('O=C(N/N=C/c1cc(Cl)cc(Cl)c1[O-])c1ccccc1O.O=C(N/N=C/c1cc(Cl)cc(Cl)c1[O-])c1ccccc1O.[Cu+2]', 'active'),
  ('COc1ccc2[nH]cc(Cc3c[nH]c4ccc(OC)cc34)c2c1', 'inactive'),
  ('COc1ccc2c(c1)C(=O)/C(=C/c1cccc(OCC(=O)c3ccc([N+](=O)[O-])cc3)c1)CO2', 'inactive'),
  ('COc1cc(C(=O)c2cnc(-c3ccc4cc[nH]c4c3)[nH]2)cc(OC)c1OC', 'active'),
  ('C#Cc1cccc(Nc2ncnc3ccc(-c4cnc(N)nc4)cc23)c1', 'inactive'),
  ('N#Cc1ccc(O)c(C2=NCC(c3ccc(-c4ccccc4)cc3)O2)c1 (centres undefined)', 'active'),
  ('O=C1c2c(c3c4ccccc4n(CCCCCCN4CCOCC4)c3c3[nH]c4ccccc4c23)C(=O)N1O', 'inactive'),
  ('COC1/C=C/OC2(C)Oc3c(C)c(O)c4c(O)c(c(/C=N/N(c5ccccc5)c5ccccc5)c(O)c4c3C2=O)NC(=O)C(C)=C/C=C/C(C)C(O)C(C)C(O)C(C)C(OC(C)=O)C1C (centres undefined)', 'inactive');

Values compiled from PubChem BioAssay (NCI).
